Value source: PubChem BioAssay (NCATS)

# experimentalProtocol: qHTS of pediatric cancer cell lines to identify multiple opportunities for drug repurposing: Confirmatory screen for DAOY cells (AID 1347114); also: nearly all actives have a fitted effect of over 65% in size
# testContext: DAOY medulloblastoma cells viability, cytotoxicity qHTS; series mostly up to 45.9 µM
Records with an inconclusive call do not appear. Activity calls are given as the source filed them. Calls follow the shape of the dose curve; as a rule, active = well fitted cell-killing curve with a large enough effect; inconclusive = small, poorly fitted or top-dose-only effect; inactive = no such curve, though single readings can be large or run the other way.
Write down one outcome, taken from yes (1) (active), no (0) (inactive)

Reference set (5 entries):
CC(C)C[C@@H](C(=O)N[C@H](C(=O)OC1CCCC1)c1ccccc1)[C@H](O)C(=O)NO : yes (1)
CC1C(=O)OC2C(O)C34C5CC(C(C)(C)C)C36C(OC(=O)C6O)OC4(C(=O)O5)C12O (stereo not drawn) : no (0)
C[C@@H]1C[C@H]2[C@@H]3CCC4=CC(=O)C=C[C@]4(C)[C@@]3(F)[C@@H](O)C[C@]2(C)[C@@]1(O)C(=O)CO : no (0)
Nc1[nH]nc2nnc(-c3c(-c4ccccc4)nn4ccccc34)cc12 : no (0)
FC(F)(F)c1ccc(C=Cc2nc(COc3ccc(CCCCn4ccnn4)cc3)co2)cc1 : yes (1)

Task item: Returns: the outcome recorded for "COc1ccc(-c2ccc3ncc4c(c3c2)n(-c2ccc(N3CCNCC3)c(C(F)(F)F)c2)c(=O)n4C)cn1" in this assay.
Reply: yes (1)

Task item: Follow-up entry: "Cc1ccc(C(=O)N(CCCN)[C@@H](c2oc3cc(Cl)ccc3c(=O)c2Cc2ccccc2)C(C)C)cc1"
Reply: yes (1)

Task item: Another compound: "CC[C@H](NC(=O)[C@H](C)NC)C(=O)N1C[C@@H](O)C[C@H]1Cc1c(-c2[nH]c3cc(F)ccc3c2C[C@H]2C[C@H](O)CN2C(=O)[C@H](CC)NC(=O)[C@H](C)NC)[nH]c2cc(F)ccc12"
Reply: yes (1)

* * *

# experimentalProtocol: Quantitative High-Throughput drug screen in 47 multiple myeloma cell lines against the NCATS MIPE library collection: MM1S_ATCC cell viability assay (AID 1918980); also: nearly all actives have a fitted effect of over 45% in size
# testContext: MM1S myeloma viability, CellTiter-Glo ATP luminescence, 48 h; series mostly up to 45.8 µM
Records with an inconclusive call do not appear. Activity calls are given as the source filed them. The call rests on the fitted dose curve; in most records, active means well fitted cell-killing curve with a large enough effect; inconclusive means small, poorly fitted or top-dose-only effect, or effect the other way; inactive means no such curve, though single readings can be large or run the other way.
The reply should name one outcome from true (active), false (inactive)

O=C(NC[C@H](O)CO)c1ccncc1Nc1ccc(I)cc1F : true
CCOC(=O)[C@H](CCc1ccccc1)N[C@@H](C)C(=O)N1CCCC1C(=O)O (some centres undefined) : true
CN(C)CCN(C)C(=O)c1ccc(NC(=O)Nc2ccc(-c3nc(N4CCOCC4)c4ccn(CC(F)(F)F)c4n3)cc2)cc1 : true
CC(C)(F)C[C@H](N[C@@H](c1ccc(-c2ccc(S(C)(=O)=O)cc2)cc1)C(F)(F)F)C(=O)NC1(C#N)CC1 : false
CC=C1C2C=C(C)CC1(N)c1ccc(=O)[nH]c1C2 (centres undefined) : false
COc1cc2ncn(-c3cc(OCc4ccccc4S(C)(=O)=O)c(C#N)s3)c2cc1OC : true
CCOC(=O)N1CCN([N+]([O-])=NOc2cc(ON=[N+]([O-])N3CCN(C(=O)OCC)CC3)c([N+](=O)[O-])cc2[N+](=O)[O-])CC1 : true
CON(C)C(=O)N1N=C(c2cc(F)ccc2F)S[C@]1(CCCN)c1ccccc1 : false

--- query ---
Task item: Hello, I am checking results. What call was entered for "CN1CCC[C@H]1CCO[C@](C)(c1ccccc1)c1ccc(Cl)cc1" ?
Reply: true
